Measured Emax, listed per entry for reference.
- TEST SYSTEM: human PR-B (Homo sapiens)
- Construct: expressed in transfected cells; host or cells: CV-1 cells (African green monkey kidney fibroblasts), transient transfection
- Sequence (P06401 whole entry): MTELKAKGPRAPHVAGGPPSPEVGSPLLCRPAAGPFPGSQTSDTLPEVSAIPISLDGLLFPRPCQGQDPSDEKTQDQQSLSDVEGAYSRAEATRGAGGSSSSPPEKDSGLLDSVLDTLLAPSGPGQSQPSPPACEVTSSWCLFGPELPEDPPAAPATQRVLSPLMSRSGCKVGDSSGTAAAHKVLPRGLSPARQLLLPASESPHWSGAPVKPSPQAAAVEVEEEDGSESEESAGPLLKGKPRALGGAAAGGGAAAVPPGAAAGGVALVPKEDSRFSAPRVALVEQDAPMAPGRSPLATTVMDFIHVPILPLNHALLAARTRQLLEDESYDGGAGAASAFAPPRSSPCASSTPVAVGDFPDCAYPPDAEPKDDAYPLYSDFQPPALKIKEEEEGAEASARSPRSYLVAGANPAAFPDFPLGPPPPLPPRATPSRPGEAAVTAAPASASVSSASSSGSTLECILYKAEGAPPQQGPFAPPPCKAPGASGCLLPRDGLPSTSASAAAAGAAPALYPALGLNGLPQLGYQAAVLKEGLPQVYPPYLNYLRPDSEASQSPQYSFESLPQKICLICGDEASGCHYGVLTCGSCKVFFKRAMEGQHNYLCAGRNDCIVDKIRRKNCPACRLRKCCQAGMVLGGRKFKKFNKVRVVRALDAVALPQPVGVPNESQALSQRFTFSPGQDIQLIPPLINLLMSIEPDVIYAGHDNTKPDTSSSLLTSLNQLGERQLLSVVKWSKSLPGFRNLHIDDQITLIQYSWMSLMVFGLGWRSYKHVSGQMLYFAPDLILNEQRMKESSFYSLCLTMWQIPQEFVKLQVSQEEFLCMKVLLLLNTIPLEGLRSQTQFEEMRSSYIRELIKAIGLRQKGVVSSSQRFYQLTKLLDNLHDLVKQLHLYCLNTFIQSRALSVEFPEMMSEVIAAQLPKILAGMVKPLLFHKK
- TEST DESCRIPTION: Co-transfection assay, PR antagonist activity;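 also: monkey kidney fibroblasts co-transfected with receptor expression plasmid and hormone-responsive luciferase reporter, antagonism read as reduced luciferase signal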
- Type: cell-based
- REPORTED CONDITIONS: CV-1, read-out: PR Antagonist CV-1 Cells Efficacy (%)
MEASUREMENT TYPE: Emax (%)

In [3]: df
Out[3]:
                               input_smiles  endpoint_value
0     CC1=CC(C)(C)Nc2ccc(-c3csc(C#N)c3)cc21              70
1  CC1=CC(C)(C)Nc2ccc(-c3cccc([N+](=O)[O-])c3)c(Cl)c21              70
2     CC1=CC(C)(C)Nc2ccc(-c3nn(C)cc3Br)cc21              71
